This collection of values is drawn from patent US5124339A.

- EXPERIMENT_NOTES: In vitro cytotoxicity of potentiating agents, MTT absorbance (drug resistant CHO)
- TEST_SETTINGS: chinese hamster, c5s32 cells

# SMILES, viability at 96 h, 1 µM
rows = [
    ("COc1ccc(CN(CCN(C)C)c2ccc(Br)cn2)cc1", "100%"),
    ("COc1ccc(CN(CCN(C)C)c2cccc(/C=C/C(=O)O)n2)cc1", "68%"),
]

---

Recorded viability at 96 h, 1 µM by entry
- EXPERIMENT_NOTES: In vitro cytotoxicity of potentiating agents, MTT absorbance (drug resistant KB)
- TEST_SETTINGS: human, kb v-1 cells

# SMILES, viability at 96 h, 1 µM
measured = [
    ("COc1ccc(CN(CCN(C)C)c2cccc(/C=C/C(=O)O)n2)cc1", "70%"),
    ("COc1ccc(CN(CCN(C)C)c2ccc(Br)cn2)cc1", "77%"),
]

---

- EXPERIMENT_NOTES: In vitro cytotoxicity of potentiating agents, MTT absorbance (wildtype KB)
- TEST_SETTINGS: human, kb 3-1 cells
Recorded viability at 96 h, 1 µM by entry

# SMILES, UNIT_SPEC, viability at 96 h, 1 µM
records = [
    ("COc1ccc(CN(CCN(C)C)c2cccc(/C=C/C(=O)O)n2)cc1", "%", 100),
    ("COc1ccc(CN(CCN(C)C)c2ccc(Br)cn2)cc1", "%", 97),
]

---

- EXPERIMENT_NOTES: In vitro cytotoxicity of potentiating agents, MTT absorbance (drug resistant CHO)
- TEST_SETTINGS: chinese hamster, c5s32 cells
Recorded viability at 96 h, 10 µM by entry

# COMPOUND, viability at 96 h, 10 µM [%]
data = [
    ("COc1ccc(CN(CCN(C)C)c2cccc(/C=C/C(=O)O)n2)cc1 [(A)]", 28),
    ("COc1ccc(CN(CCN(C)C)c2ccc(Br)cn2)cc1 [(B)]", 91),
]

---

Recorded viability at 96 h, 1 µM by entry
- EXPERIMENT_NOTES: In vitro cytotoxicity of potentiating agents, MTT absorbance (wildtype CHO)
- TEST_SETTINGS: chinese hamster, auxb1 cells

# SMILES, viability at 96 h, 1 µM, %
measured = [
    ("COc1ccc(CN(CCN(C)C)c2cccc(/C=C/C(=O)O)n2)cc1", 100),
    ("COc1ccc(CN(CCN(C)C)c2ccc(Br)cn2)cc1", 100),
]

---

- EXPERIMENT_NOTES: In vitro cytotoxicity of potentiating agents, MTT absorbance (wildtype CHO)
- TEST_SETTINGS: chinese hamster, auxb1 cells
Recorded viability at 96 h, 10 µM by entry

# SMILES, viability at 96 h, 10 µM
measured = [
    ("COc1ccc(CN(CCN(C)C)c2ccc(Br)cn2)cc1", "100%"),
    ("COc1ccc(CN(CCN(C)C)c2cccc(/C=C/C(=O)O)n2)cc1", "41%"),
]
